System: Puccinia triticina
Test: Wheat brown rust (PUCCRT) disease control on wheat seedlings
Type: in vivo
Conditions: 72 h, High volume application, 100 ppm, 3 Day Curative, read-out: PUCCRT disease control rating, 3DC
Items are presented alongside their recorded pest or weed control at 100 ppm.
Test readout: pest or weed control at 100 ppm

>  <Mol>
COc1ccnc(C(=O)N[C@@H](C)C(=O)O[C@H](C)[C@H](C)C2CCCC2)c1O

>  <Test result>
< 80%

$$$$
>  <Mol>
COc1ccccc1[C@H](C)[C@H](C)OC(=O)[C@H](C)NC(=O)c1nccc(OC)c1O

>  <Test result>
> 80%

$$$$
>  <Mol>
COc1ccnc(C(=O)N[C@@H](C)C(=O)O[C@@H](C)[C@@H](C)c2ccc(N(C)C)cc2)c1O

>  <Test result>
< 80%

$$$$
>  <Mol>
COc1ccnc(C(=O)N[C@@H](C)C(=O)O[C@@H](C)[C@H](C)c2ccc(F)cc2C)c1O

>  <Test result>
< 80%

$$$$
>  <Mol>
COc1ccnc(C(=O)NCC(=O)O[C@@H](C)[C@H](C)c2ccccc2C)c1O

>  <Test result>
< 80%

$$$$
>  <Mol>
COc1ccnc(C(=O)NCC(=O)O[C@@H](C)[C@H](C)c2ccc(F)cc2C)c1O

>  <Test result>
< 80%

$$$$
>  <Mol>
COc1ccnc(C(=O)N[C@@H](C)C(=O)O[C@@H](C)[C@@H](C)c2ccc(F)cc2)c1O

>  <Test result>
> 80%

$$$$
>  <Mol>
COc1ccnc(C(=O)N[C@H](C)C(=O)O[C@@H](C)[C@H](C)c2ccccc2C)c1O

>  <Test result>
< 80%

$$$$
>  <Mol>
COc1ccnc(C(=O)N[C@@H](C)C(=O)O[C@@H](C)[C@@H](C)c2ccc(C)s2)c1OC(C)=O

>  <Test result>
> 80%

$$$$
>  <Mol>
COc1ccnc(C(=O)N[C@H](C)C(=O)O[C@@H](C)[C@@H](C)c2ccc(F)cc2)c1O

>  <Test result>
< 0%

$$$$
>  <Mol>
COc1ccnc(C(=O)N[C@@H](C)C(=O)O[C@H](C)[C@H](C)c2ccc(F)cc2C)c1O

>  <Test result>
< 80%

$$$$
>  <Mol>
COc1cc(F)ccc1[C@@H](C)[C@@H](C)OC(=O)[C@H](C)NC(=O)c1c(O)c(OC)cc[n+]1[O-]

>  <Test result>
< 0%

$$$$
>  <Mol>
COc1ccnc(C(=O)NCC(=O)O[C@H](C)[C@H](C)c2ccc(F)cc2)c1O

>  <Test result>
< 80%

$$$$
>  <Mol>
COc1ccnc(C(=O)N[C@H](C(=O)O[C@@H](C)[C@H](C)c2ccc(F)cc2C)C(C)C)c1O

>  <Test result>
< 0%

$$$$
>  <Mol>
COc1ccnc(C(=O)N[C@H](C)C(=O)O[C@@H](C)[C@@H](C)c2ccc(F)cc2C)c1O

>  <Test result>
< 80%

$$$$
